Readings of viability at 28.5 h, 10 µM for the listed molecules
method.description: in vitro
measurement.parameters: human, hela cells, % viability

| molecule | readout.units | viability at 28.5 h, 10 µM |
| --- | --- | --- |
| CC(C)CCc1csc(C2CN3CCCC3CO2)n1 (stereo not drawn) | % | 89.9 |
| COc1ncc(-c2nccnc2NCc2cccc(Cl)c2)c(OC)n1 | % | 90 |
| Cc1ccc(C)c(C(=O)C2=C(O)C(=O)N(CCCN3CCOCC3)C2c2ccncc2)c1 (stereo not drawn) | % | 103 |
| CN1CCCN(c2nccnc2-c2cccs2)CC1 | % | 98.5 |
| Cc1sc2nc(SCc3cc(O)[nH]n3)nc(N)c2c1C | % | 88.6 |
| O=C(OCc1ccccc1)N1CCN(C(=O)c2cc3cc(Br)ccc3[nH]2)CC1 | % | 97.5 |
| CC1CCCCC1NC(=O)CSc1cccc2cccnc12 (stereo not drawn) | % | 96.9 |
| COc1cccc(Nc2[nH]nnc2C(=O)Nc2cccc(C)c2C)c1 | % | 102 |
| O=C(c1cc(F)cc(F)c1)N1CC[C@@H](c2ccccc2)[C@H](O)C1 | % | 79.1 |
| Cc1n[nH]c(=S)n1-c1ccc(Cl)cc1 | % | 94.5 |
| CCCCNC(=O)c1ccc2nc(CC)c(N(C)CCC(C)C)n2c1 | % | 100 |
| O=C(Cc1ccc(Cl)cc1)Nc1cccc(C(=O)Nc2ccccc2C(=O)O)c1 | % | 107 |
| CCN(CC)CCSc1nc(O)c(-c2ccccc2)c(=O)n1-c1ccccc1 [CBK263335C] | % | 111 |
| COc1ccccc1-c1ccc2c(c1)COC1(CCN(C)CC1)O2 | % | 82.2 |
| COc1ccc(C(=O)Nc2ccc(S(=O)(=O)Nc3nccs3)cc2)cc1I | % | 92.7 |
| O[C@@]1(c2ccccn2)CC[C@H]2CN(CC3CCCCC3)C[C@H]21 | % | 96.9 |
| COCC(=O)N1CCc2sccc2C1c1ccc(NCc2ccccc2F)cc1 (stereo not drawn) | % | 96.6 |
| c1csc(-c2nccnc2NCCc2ccncc2)c1 | % | 108 |
| Cc1ccc(CN(Cc2cncn2C)C2CC(C)(C)NC(C)(C)C2)o1 | % | 103 |
| O=C(CSCc1ccc(Cl)c(Cl)c1)Nc1cccnc1 | % | 112 |
| O=c1[nH]c2ccccc2n1CCCSc1nnc2c(n1)[nH]c1ccccc12 | % | 118 |
| Cc1nn(Cc2cccnc2)c(=O)n2cccc12 | % | 105 |
| Cc1ccc(/C=N/NC(=O)CN(c2ccccc2)S(=O)(=O)c2ccccc2)c(C)c1C | % | 89.6 |
| O=C(c1ccc2ncccc2c1)N1CCN(C(=O)c2ccco2)CC1 | % | 94 |
| Cn1c(=O)oc2cc(S(=O)(=O)N3CCN(C4CCCCC4)CC3)ccc21 | % | 107 |
| Cn1c(Cc2csc(NC(=O)c3ccc(Cl)cc3F)n2)n[nH]c1=S | % | 94.7 |
| COc1ccc(OCCNC(=O)c2ccc(-c3cccc(N(C)C)c3)nc2N(C)C(C)=O)cc1 | % | 92.8 |
| COCCN1CCC(CNC(=O)Nc2cc(C)ccc2F)C1 (stereo not drawn) | % | 117 |
| O=C(c1cccs1)N(Cc1ccco1)Cc1cc2ccccc2[nH]c1=O | % | 104 |
| O=C1NCCN1CCOc1nccnc1/C=C/c1ccccc1 | % | 96 |
| CCN(Cc1cnn(C)c1)S(=O)(=O)c1ccc2c(c1)CCCC(=O)N2 | % | 100 |
| Cc1cc(C)cc(OCC(=O)Nc2c(C#N)c(C)nn2C)c1 | % | 110 |
| CC#CC1CCCC2N(c3ccccc3)CCN12 (stereo not drawn) | % | 119 |
| OC(CN1CCN(Cc2ccccc2)CC1)Cn1c2ccc(Br)cc2c2cc(Br)ccc21 (stereo not drawn) | % | 94.4 |
| O=C1CC2(CCN(C(=O)c3ccccc3F)CC2)Oc2c(Cl)cc(Cl)cc21 | % | 91.8 |
| OC(COc1cccc2c1CCCC2)CN1CCC(Cc2ccccc2)CC1 (stereo not drawn) | % | 94.7 |
| CN(C(=O)Cn1cccn1)c1nc2c(s1)CC(c1ccccc1)CC2 (stereo not drawn) | % | 102 |
| COc1c(Cl)cc(Cl)cc1CNC(C)(C)CO [CBK270212C] | % | 102 |
| CC1CCN(S(=O)(=O)N2CCCC2c2cccc(F)c2)CC1 (stereo not drawn) | % | 93.2 |
